# METHOD SUMMARY: Mouse pharmacokinetics, single i.v. dose
# Type: in vivo
# PROTOCOL CONDITIONS: plasma, iv, single i.v. dose of SH-11008 3 mg/kg, male ICR mice
OBSERVABLE: Cmax (ng/mL)
Write the number in ng/mL without appending the unit.

Request: Answer with reported Cmax of COc1ccc(CC2COc3cc(OC)c(OC)c(OC)c3C2=O)cc1O (stereo not shown) [SH-11008]
Result: 770

###

# METHOD SUMMARY: Mouse pharmacokinetics, single i.v. dose
# Format: in vivo
# PROTOCOL CONDITIONS: plasma, iv, single i.v. dose of SH-11008 3 mg/kg, male ICR mice
OBSERVABLE: clearance (mL/min/kg)
Write the number in mL/min/kg without appending the unit.

Request: Answer with reported clearance of COc1ccc(CC2COc3cc(OC)c(OC)c(OC)c3C2=O)cc1O (stereo not shown)
Result: 210

###

# METHOD SUMMARY: Mouse pharmacokinetics, single i.v. dose
# Type: in vivo
# PROTOCOL CONDITIONS: plasma, iv, single i.v. dose of SH-11008 3 mg/kg, male ICR mice, read-out: AUClast of SH-11008 (converted)
OBSERVABLE: AUC(0-t) (ng·h/mL)
Write the number in ng·h/mL without appending the unit.

Request: Answer with reported AUC(0-t) of COc1ccc(CC2COc3cc(OC)c(OC)c(OC)c3C2=O)cc1O (stereo not shown)
Result: 239

###

# METHOD SUMMARY: Stability of SH-11037 in dog plasma
# Type: in vitro ADME
# PROTOCOL CONDITIONS: beagle, pH 7.4, SH-11037 1 µM, 37 °C, read-out: half-life (t1/2) of hydrolysis to SH-11008
OBSERVABLE: half-life at 1 µM
Write down the value, and be sure its unit follows.

Request: Answer with reported half-life at 1 µM of COc1ccc(CC2COc3cc(OC)c(OC)c(OC)c3C2=O)cc1OC(=O)[C@H](Cc1ccccc1)NC(=O)OC(C)(C)C (stereo partly shown) [SH-11037]
Result: 1.15 h

###

# METHOD SUMMARY: Metabolic stability of SH-11008 in mouse liver S9 fractions
# Format: in vitro ADME
# PROTOCOL CONDITIONS: CD-1, liver S9 fractions, pH 7.4; mouse, scaled from in vitro t1/2 in MLS9
OBSERVABLE: CLint scaled at 1 µM (mL/min/kg)
Write the number in mL/min/kg without appending the unit.

Request: Answer with reported CLint scaled at 1 µM of COc1ccc(CC2COc3cc(OC)c(OC)c(OC)c3C2=O)cc1O (stereo not shown)
Result: 1510
